Form: system (AChE (Homo sapiens, UniProt P22303)), quantity (IC50), values below.

Request: IC50, test system AChE (Homo sapiens, UniProt P22303), entry CCn1c(-c2ccc(Cl)c(Cl)c2)csc1=NN=Cc1ccnc2ccccc12
0.107 µM

====

assay: MTT cytotoxicity assay; settings: mouse
parameter: IC50 at 24 h

# molecule, IC50 at 24 h
data = [
    ("COc1cccc2c1C(=O)c1c(O)c3c(c(O)c1C2=O)C[C@@](O)(C(=O)CO)C[C@@H]3O[C@H]1C[C@H](N)[C@H](O)[C@H](C)O1 [Doxorubicin, reference compound]", "> 1000 µM"),
]

# lookup: IC50 at 24 h of CCn1c(-c2ccc(O)c(O)c2)csc1=NN=Cc1ccnc2ccccc12
19.8 µM

Continue with CCn1c(-c2ccc(Cl)c(Cl)c2)csc1=NN=Cc1ccnc2ccccc12
36.1 µM

====

Form: system (AChE (Homo sapiens, UniProt P22303)), quantity (IC50), values below.

Below are worked cases with known answers.
# compound, IC50
measured = [
    ("CCn1c(-c2ccccc2)csc1=NN=Cc1ccnc2ccccc12 [3a]", "> 10 µM"),
    ("CCn1c(-c2ccc(F)cc2)csc1=NN=Cc1ccnc2ccccc12 [3e]", "1.87 µM"),
]

# lookup: IC50 of CCn1c(-c2ccc(C#N)cc2)csc1=NN=Cc1ccnc2ccccc12 [3g]
9.96 µM

Continue with CCn1c(-c2ccc(C)cc2)csc1=NN=Cc1ccnc2ccccc12 [3b]
> 10 µM

Continue with CCn1c(-c2ccc(O)c(O)c2)csc1=NN=Cc1ccnc2ccccc12 [3i]
0.027 µM

Continue with CCn1c(-c2ccc([N+](=O)[O-])cc2)csc1=NN=Cc1ccnc2ccccc12 [3d]
> 10 µM

Continue with CCn1c(-c2ccc(Cl)cc2)csc1=NN=Cc1ccnc2ccccc12 [3f]
4.75 µM

Continue with CCn1c(-c2ccc(OC)cc2)csc1=NN=Cc1ccnc2ccccc12 [3c]
3.68 µM
